Just for reference, PubChem BioAssay AID463190 is where these values come from.

- test_method_notes: growth inhibitors of tim10-1 mutant yeast, primary screen, luminescence, uHTS (AID 463190);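 note: mutant grown at 25 °C; 0% = DMSO wells with yeast and 100% = wells holding no yeast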
- conditions: S. cerevisiae tim10-1 ts strain growth, BacTiter-Glo, 24 h; at 20 µM; active compounds read high
About 7,300 (2.2%) of roughly 330,000 compounds were called active. What follows is part of a selection rich in actives, with near analogues and random picks from the rest.
observable: inhibition

Tell me inhibition reported for `O=[N+]([O-])c1cccc(/C=N/Nc2ncc(Br)cn2)c1`
-23.5% (inactive)

Tell me inhibition reported for `COc1ccc(NC(=O)c2cc3nc(-c4ccccc4)cc(C)n3n2)cc1OC`
51.1% (active)

Tell me inhibition reported for `COc1ccc(CNC(=O)[C@@H]2CC=C[C@@H]3CCN(C4CC4)C(=O)[C@@H]32)cc1`
6.25% (inactive)

Tell me inhibition reported for O=C(O)C(c1ccccc1)C1(O)CCCCC1 (stereo not drawn)
2.11% (inactive)

Tell me inhibition reported for `O=C(Nc1nnc(CCN2CCCCC2)s1)c1cccc(Cl)c1`
-12.8% (inactive)

Tell me inhibition reported for CCC(C)Cn1c(O)cc2nn(-c3nc4ccccc4s3)c(=O)c-2c1C (stereo not drawn)
0.194% (inactive)

Tell me inhibition reported for `CCC1(CC)NC(=O)N(Cc2nc3ccccc3s2)C1=O`
9.64% (inactive)

Tell me inhibition reported for `O=C(N/N=C/c1ccc([N+](=O)[O-])cc1)C(=O)N1CCCC1`
17.3% (inactive)

Tell me inhibition reported for `COc1cccc(C(=O)Nc2cc3c(cc2Br)OCCCO3)c1`
40.7% (active)

Tell me inhibition reported for `COc1ccc(NC(=O)CNC(=O)Cc2ccccc2)cc1OC`
-6.35% (inactive)

Tell me inhibition reported for `O=C(CSc1ncn[nH]1)Nc1ccc(Br)cc1Br`
-12.6% (inactive)

Tell me inhibition reported for `O=[N+]([O-])/C=C/c1ccc2c(ccn2Cc2ccccc2)c1`
-97.4% (inactive)

Tell me inhibition reported for `CCOC(=O)c1c(C)oc2cc(Sc3ccccc3)c(O)c(O)c12`
34.3% (inactive)

Tell me inhibition reported for `Cc1[nH]c2ccccc2c1C(=O)CSCC(=O)O`
12.6% (inactive)

Tell me inhibition reported for CN(CC(=O)Nc1cccc(F)c1)C(=O)C1CSC2(C)CCC(=O)N12 (stereo not drawn)
2.74% (inactive)

Tell me inhibition reported for `CC(=O)Nc1ccc(C(=O)/C=C/c2ccc[nH]2)cc1`
-13.3% (inactive)

Tell me inhibition reported for `CC1CCN(CCCNC(=O)CN2C(=O)CSc3ccc(S(=O)(=O)N4CCCCC4)cc32)CC1`
25.2% (inactive)

Tell me inhibition reported for `CC(=O)Nc1ccc(/C=C/C(=O)c2ccccc2)cc1`
51.4% (active)

###

- test_method_notes: growth inhibitors of tim10-1 mutant yeast, primary screen, luminescence, uHTS (AID 463190);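 note: mutant grown at 25 °C; 0% = DMSO wells with yeast and 100% = wells holding no yeast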
- conditions: S. cerevisiae tim10-1 ts strain growth, BacTiter-Glo, 24 h; at 20 µM; active compounds read high
Screen size: about 330,000 compounds; about 7,300 (2.2%) were called active. This excerpt belongs to a sample that is enriched for actives.
Exercise: state measured inhibition for each of the compounds provided.
# unit: % | format: bare number

Tell me inhibition reported for COc1ccc(C(C[N+](=O)[O-])n2nc(C)cc2C)cc1 (centres undefined)
43.3

Tell me inhibition reported for `O=C(c1cc(=O)c2ccccc2o1)N1CCN(c2ccccc2)CC1`
5.8

Tell me inhibition reported for `Fc1cccc(CSc2nnc3ccc(-c4ccncc4)nn23)c1`
16.3

Tell me inhibition reported for `Cc1cc(C)cc(OCC(=O)O/N=C(\N)Cc2ccc([N+](=O)[O-])cc2)c1`
19.4

Tell me inhibition reported for `O=C(N/N=C1\CCSC1)c1cc(Cl)ccc1O`
-11.5

Tell me inhibition reported for Clc1cccc(-c2nc(NCC3CCCO3)c3ccccc3n2)c1 (centres undefined)
17.9

Tell me inhibition reported for `CCCCNC(=O)Cn1nc(C)c(S(=O)(=O)N2CCOCC2)c1C`
-10.1

Tell me inhibition reported for `C/C(=N\NC(=S)NCc1ccccc1)C1CCCCC1`
42.6

Tell me inhibition reported for `O=C(CNS(=O)(=O)c1ccccc1)NCC(=O)OCc1ccccc1F`
9.03

Tell me inhibition reported for `Cc1nonc1OCCn1nnnc1N`
4.98

Tell me inhibition reported for `Cc1ccc(Oc2ccc3c(c2)C(=O)N(c2cccc4cccnc24)C3=O)cc1`
18.3

Tell me inhibition reported for `Cc1ccc(C(=O)NC23CC4CC(CC(C4)C2)C3)c(Cl)c1`
-11.9

Tell me inhibition reported for `O=C(CN1CCN(Cc2ccc(F)cc2Cl)C1=O)NCc1cccs1`
12.6

Tell me inhibition reported for `Cc1ccccc1NC(=O)NCC1CCN(Cc2cccc(Cl)c2)CC1`
4.31

Tell me inhibition reported for Cc1ccc(OS(=O)Nc2cccc3nccnc23)cc1 (centres undefined)
54.6

Tell me inhibition reported for `COc1ccccc1N1CCN(C(=O)c2cc(=O)c3cc(C)cc(C)c3o2)CC1`
45.3

Tell me inhibition reported for `O=C(CSc1cccc2cccnc12)N/N=C/c1cccnc1`
51.7

Tell me inhibition reported for `Cc1cc(C)c(S(=O)(=O)c2ccccc2)c(OC(=O)c2c(F)cccc2Cl)n1`
42.6

Tell me inhibition reported for `CCCNC(=O)c1ccc(N2CCC3(CC2)CC(c2ccc(Cl)cc2)=NO3)c([N+](=O)[O-])c1`
7.65

Tell me inhibition reported for O=C(O)CCCC(=O)N1N=C(c2ccco2)CC1c1ccco1 (centres undefined)
-34.5

Tell me inhibition reported for `C/C(=N\NC(=S)NCc1ccccc1)c1ccc(Cl)cc1`
22.9

Tell me inhibition reported for `CCO[C@H]1OC(C(=O)O)=C[C@@H](C2CCCCC2)[C@@H]1CCCO`
-21.3

Tell me inhibition reported for `CCn1c(CNc2ccc(OC)cc2)nnc1SCC(=O)c1ccc(OC)cc1`
25.4

Tell me inhibition reported for `COC(=O)c1cc(NC(=O)c2nn(C)c(=O)c3ccccc23)cc(C(=O)OC)c1`
13.9

Tell me inhibition reported for `COc1ccc(N2CCN(c3ccc([N+](=O)[O-])cc3Cl)CC2)cc1`
-1.93

Tell me inhibition reported for OC1CCCN(c2ncnc3c2nnn3Cc2c(F)cccc2Cl)C1 (centres undefined)
14.9

Tell me inhibition reported for `Cc1ccc(NNC(=O)c2c(F)cccc2Cl)cc1Cl`
14

Tell me inhibition reported for `Cc1cc(OC(=O)c2c(Cl)cccc2Cl)nc(C)n1`
35

Tell me inhibition reported for COC(=O)C(C)NC(=O)COc1ccc2ccccc2c1 (centres undefined)
8.45

Tell me inhibition reported for `CCCc1cc(C(=O)Nc2ccc(Cl)cn2)cs1`
27.7

Tell me inhibition reported for `N/C(Cc1ccc([N+](=O)[O-])cc1)=N\OC(=O)C1CCCCC1`
61.6

Tell me inhibition reported for `C/C(=N/NC(=O)c1cc(Cl)ccc1O)C12CC3CC(CC(C3)C1)C2`
50.7

Tell me inhibition reported for `CCOc1ccccc1Nc1nnc(SCC(=O)Nc2cc(C)on2)s1`
14.3

Tell me inhibition reported for `CC(C)(C)c1cnnn1-c1ccc([N+](=O)[O-])cc1`
12

Tell me inhibition reported for `c1ccc(-c2nc(NCc3ccco3)c3ccccc3n2)cc1`
51.3

Tell me inhibition reported for c1ccc2c(NCC3CCCO3)nc(-c3ccncc3)nc2c1 (centres undefined)
33.4

Tell me inhibition reported for Cc1ccc(N2CC(C(=O)N3CCC4(CC3)CC(=O)c3ccccc3O4)CC2=O)cc1C (centres undefined)
1.3

Tell me inhibition reported for `N/C(Cc1ccc([N+](=O)[O-])cc1)=N\OC(=O)COc1ccc2ccccc2c1`
68.6

Tell me inhibition reported for `Cc1nn(C(=O)c2ccoc2C)c(N)c1-c1ccccc1`
2.61

Tell me inhibition reported for CCCCCCC(O)(CCN1CCCCC1)c1ccccc1 (centres undefined)
7.54

Tell me inhibition reported for `CCOC(=O)N/N=C/c1cccnc1`
5.36

Tell me inhibition reported for `CCCc1nnc(NC(=O)CCC(=O)NC2CC2)s1`
10.7

Tell me inhibition reported for `O=C(COC(=O)C1CCCCC1)Nc1ccc([N+](=O)[O-])cc1`
13.8

Tell me inhibition reported for `Cc1ccc(OCC(=O)Nn2cnc3ccccc32)cc1`
1.81

###

- test_method_notes: growth inhibitors of tim10-1 mutant yeast, primary screen, luminescence, uHTS (AID 463190);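 note: mutant grown at 25 °C; 0% = DMSO wells with yeast and 100% = wells holding no yeast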
- conditions: S. cerevisiae tim10-1 ts strain growth, BacTiter-Glo, 24 h; at 20 µM; active compounds read high
In all, about 330,000 compounds went through this assay and about 7,300 (2.2%) were called active. For the sample, actives were picked, then their nearest neighbours and some compounds at random.
observable: inhibition (%)
# unit: % | format: bare number

Tell me inhibition reported for `CCOC(=O)Cc1csc(NC(=O)COc2ccc3c(C)cc(=O)oc3c2)n1`
11.9

Tell me inhibition reported for `CCOC(=O)c1c(-c2cccc(N)c2)cn2ccccc12`
10.5

Tell me inhibition reported for `CCCOc1ccc(Cc2c(Cl)nc(SC)nc2NC)cc1`
35.5

Tell me inhibition reported for `CN(CCC1CCOCC1)Cc1cn[nH]c1-c1ccc(-c2ccccc2)cc1`
18

Tell me inhibition reported for CC12COC3(C(=O)Nc4ccc(Cl)cn4)CC1CCC32C (stereo not given)
33.3
